Data origin: patent US10851082B2

TARGET ENTITY: Mnk1 (Homo sapiens (Human), UniProt Q9BUB5)
Sequence (Q9BUB5 whole entry): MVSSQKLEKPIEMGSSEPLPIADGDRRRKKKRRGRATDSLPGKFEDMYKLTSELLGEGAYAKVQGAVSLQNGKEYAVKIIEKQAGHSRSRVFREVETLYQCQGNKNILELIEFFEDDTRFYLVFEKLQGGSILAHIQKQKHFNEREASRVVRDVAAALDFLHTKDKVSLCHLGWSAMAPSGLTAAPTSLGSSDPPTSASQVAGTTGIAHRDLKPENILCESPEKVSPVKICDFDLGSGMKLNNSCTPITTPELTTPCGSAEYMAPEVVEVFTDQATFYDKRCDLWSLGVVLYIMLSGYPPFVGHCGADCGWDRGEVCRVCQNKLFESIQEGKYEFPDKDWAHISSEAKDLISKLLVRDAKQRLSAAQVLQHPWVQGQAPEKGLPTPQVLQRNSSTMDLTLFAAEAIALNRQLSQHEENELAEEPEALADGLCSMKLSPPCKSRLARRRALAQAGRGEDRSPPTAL
ASSAY REMARKS: Mnk1 kinase inhibition, ADP-Glo ADP monitoring assay
Type: biochemical
CONDITION: read-out: Mnk1 IC50
PARAMETER MEASURED: log10 IC50 (log10 of the value in µM)

- MOLECULE: "CCNc1nccc(-c2cnn(-c3cccc(OC)c3)c2)n1"
  TARGET ENTITY: "Mnk1 (Homo sapiens (Human), UniProt Q9BUB5)"
  PARAMETER MEASURED: "log10 IC50"
  RESULT: 0.95
- MOLECULE: "Clc1cnc(NCCc2c[nH]c3ccccc23)nc1-n1cnc2ccccc21"
  TARGET ENTITY: "Mnk1 (Homo sapiens (Human), UniProt Q9BUB5)"
  PARAMETER MEASURED: "log10 IC50"
  RESULT: 1.11
- MOLECULE: "O=c1oc2ccccc2n1-c1ccnc(NCCc2ccncc2)n1"
  TARGET ENTITY: "Mnk1 (Homo sapiens (Human), UniProt Q9BUB5)"
  PARAMETER MEASURED: "log10 IC50"
  RESULT: 0.98
- MOLECULE: "c1ccc2c(c1)cnn2-c1nccc(NCCc2ccncc2)n1"
  TARGET ENTITY: "Mnk1 (Homo sapiens (Human), UniProt Q9BUB5)"
  PARAMETER MEASURED: "log10 IC50"
  RESULT: 0.91
- MOLECULE: "c1ccc2c(c1)c1ccccc1n2-c1ccnc(NCCc2ccncc2)n1"
  TARGET ENTITY: "Mnk1 (Homo sapiens (Human), UniProt Q9BUB5)"
  PARAMETER MEASURED: "log10 IC50"
  RESULT: 1.04
- MOLECULE: "c1ccc2c(c1)ncn2-c1cc(NCCc2ccncc2)ncn1"
  TARGET ENTITY: "Mnk1 (Homo sapiens (Human), UniProt Q9BUB5)"
  PARAMETER MEASURED: "log10 IC50"
  RESULT: 0.41
- MOLECULE: "c1ccc(Cn2cc(-c3ccnc(NCCc4c[nH]cn4)n3)cn2)cc1"
  TARGET ENTITY: "Mnk1 (Homo sapiens (Human), UniProt Q9BUB5)"
  PARAMETER MEASURED: "log10 IC50"
  RESULT: 1.28
- MOLECULE: "COc1cccc(-c2cn(-c3ccnc(NCCc4c[nH]cn4)n3)c3ccccc23)c1"
  TARGET ENTITY: "Mnk1 (Homo sapiens (Human), UniProt Q9BUB5)"
  PARAMETER MEASURED: "log10 IC50"
  RESULT: 1.46
- MOLECULE: "CCCn1ncc(-c2ccnc(NCc3nccn3CC)n2)c1C"
  TARGET ENTITY: "Mnk1 (Homo sapiens (Human), UniProt Q9BUB5)"
  PARAMETER MEASURED: "log10 IC50"
  RESULT: 0.78
- MOLECULE: "c1ccc2c(c1)cnn2-c1ccnc(NCCc2ccncc2)n1"
  TARGET ENTITY: "Mnk1 (Homo sapiens (Human), UniProt Q9BUB5)"
  PARAMETER MEASURED: "log10 IC50"
  RESULT: 0.73
- MOLECULE: "O=C1NCCCCC1Nc1ccnc(-n2cnc3ccccc32)n1 (centres unmarked)"
  TARGET ENTITY: "Mnk1 (Homo sapiens (Human), UniProt Q9BUB5)"
  PARAMETER MEASURED: "log10 IC50"
  RESULT: 1.04
- MOLECULE: "COc1cnc(NCCc2ccncc2)nc1-n1cnc2ccccc21"
  TARGET ENTITY: "Mnk1 (Homo sapiens (Human), UniProt Q9BUB5)"
  PARAMETER MEASURED: "log10 IC50"
  RESULT: 0.70
- MOLECULE: "c1ccc2c(c1)ccn2-c1ccnc(NCCc2cnc[nH]2)n1 [NUCC-0060955]"
  TARGET ENTITY: "Mnk1 (Homo sapiens (Human), UniProt Q9BUB5)"
  PARAMETER MEASURED: "log10 IC50"
  RESULT: 1.20
- MOLECULE: "Clc1cccc(-n2cc(-c3ccnc(NCCc4c[nH]cn4)n3)cn2)c1"
  TARGET ENTITY: "Mnk1 (Homo sapiens (Human), UniProt Q9BUB5)"
  PARAMETER MEASURED: "log10 IC50"
  RESULT: 0.78
- MOLECULE: "COc1cccc(-n2cc(-c3ccnc(NCCc4c[nH]cn4)n3)cn2)c1"
  TARGET ENTITY: "Mnk1 (Homo sapiens (Human), UniProt Q9BUB5)"
  PARAMETER MEASURED: "log10 IC50"
  RESULT: 0.85
- MOLECULE: "c1ccc2c(c1)ncn2-c1ccnc(NC2CCNCC2)n1"
  TARGET ENTITY: "Mnk1 (Homo sapiens (Human), UniProt Q9BUB5)"
  PARAMETER MEASURED: "log10 IC50"
  RESULT: 0.15
- MOLECULE: "Fc1cnc(NCCc2ccncc2)nc1-n1ccc2ccccc21"
  TARGET ENTITY: "Mnk1 (Homo sapiens (Human), UniProt Q9BUB5)"
  PARAMETER MEASURED: "log10 IC50"
  RESULT: 0.94

----------
IC50 values for the molecules below.
TARGET ENTITY: Mnk1
ASSAY REMARKS: Cellular inhibition of Mnk1, flow cytometry of phospho-eIF-4E (Ser209), MV4-11 cells
Assay type: cell-based
CONDITION: read-out: MV4-11 pEIF4E IC50, phospho-eIF-4E Ser209, flow cytometry

- MOLECULE: "Clc1cccc(-n2cc(-c3ccnc(NCCc4c[nH]cn4)n3)cn2)c1"
  IC50 (nM): 66
- MOLECULE: "CCn1cncc1CNc1nccc(-c2cnn(-c3cccc(OC)c3)c2)n1"
  IC50 (nM): 100
- MOLECULE: "c1ccc2c(c1)ncn2-c1ccnc(NC2CCNC2)n1 (centres unmarked)"
  IC50 (nM): 69
- MOLECULE: "FC(F)(F)c1cnc(NCCc2ccncc2)nc1-n1cnc2ccccc21"
  IC50 (nM): 100
- MOLECULE: "Fc1cnc(NCCc2ccncc2)nc1-n1cnc2ccccc21"
  IC50 (nM): 66

----------
TARGET ENTITY: Mnk1 (Homo sapiens (Human), UniProt Q9BUB5)
ASSAY REMARKS: Mnk1 kinase inhibition, ADP-Glo ADP monitoring assay
Type: biochemical
CONDITION: read-out: Mnk1 inhibition IC50 (+,++,+++)
pIC50: −log10 of the molar value.
PARAMETER MEASURED: pIC50

- COMPOUND: "N[C@H]1C[C@@H](Oc2ncc(Cl)c(-n3cnc4ccccc43)n2)C1"
  TARGET ENTITY: "Mnk1 (Homo sapiens (Human), UniProt Q9BUB5)"
  RESULT: "> 6.00"
- COMPOUND: "N#Cc1cnc(NCCc2ccncc2)nc1-n1nnc2ccccc21"
  TARGET ENTITY: "Mnk1 (Homo sapiens (Human), UniProt Q9BUB5)"
  RESULT: "< 5.00"
- COMPOUND: "CCOC(=O)c1cnc(NC2CNC(=O)C2)nc1-n1cnc2ccccc21 (centres unmarked)"
  TARGET ENTITY: "Mnk1 (Homo sapiens (Human), UniProt Q9BUB5)"
  RESULT: "5.00 to 6.00"
- COMPOUND: "FC(F)(F)c1cnc(OC2CCNC2)nc1-n1cnc2ccccc21 (centres unmarked)"
  TARGET ENTITY: "Mnk1 (Homo sapiens (Human), UniProt Q9BUB5)"
  RESULT: "> 6.00"
- COMPOUND: "N#Cc1cnc(NC2CNC(=O)C2)nc1-n1cnc2ccccc21 (centres unmarked)"
  TARGET ENTITY: "Mnk1 (Homo sapiens (Human), UniProt Q9BUB5)"
  RESULT: "> 6.00"
- COMPOUND: "Clc1cc(Cl)nc(CCOc2ncc(Cl)c(-n3cnc4ccccc43)n2)c1"
  TARGET ENTITY: "Mnk1 (Homo sapiens (Human), UniProt Q9BUB5)"
  RESULT: "5.00 to 6.00"
- COMPOUND: "Fc1ccc(CCNc2ncc(Cl)c(-n3cnc4ccccc43)n2)cc1"
  TARGET ENTITY: "Mnk1 (Homo sapiens (Human), UniProt Q9BUB5)"
  RESULT: "< 5.00"
- COMPOUND: "N#Cc1cnc(OC2CCOC2)nc1-n1cnc2ccccc21 (centres unmarked)"
  TARGET ENTITY: "Mnk1 (Homo sapiens (Human), UniProt Q9BUB5)"
  RESULT: "> 6.00"
- COMPOUND: "N#Cc1ccc(CCNc2ncc(Cl)c(-n3cnc4ccccc43)n2)cc1"
  TARGET ENTITY: "Mnk1 (Homo sapiens (Human), UniProt Q9BUB5)"
  RESULT: "< 5.00"
- COMPOUND: "O=C1CCCN1CCOc1ncc(Cl)c(-n2cnc3ccccc32)n1"
  TARGET ENTITY: "Mnk1 (Homo sapiens (Human), UniProt Q9BUB5)"
  RESULT: "> 6.00"
- COMPOUND: "Cc1ccc2c(c1)ncn2-c1nc(NCCc2ccncc2)ncc1Cl"
  TARGET ENTITY: "Mnk1 (Homo sapiens (Human), UniProt Q9BUB5)"
  RESULT: "< 5.00"
- COMPOUND: "Clc1cnc(NCCc2ccncc2)nc1-n1ccc2c(Cl)ncnc21"
  TARGET ENTITY: "Mnk1 (Homo sapiens (Human), UniProt Q9BUB5)"
  RESULT: "< 5.00"
- COMPOUND: "N#Cc1cnc(OC2CCCOC2)nc1-n1cnc2ccccc21 (centres unmarked)"
  TARGET ENTITY: "Mnk1 (Homo sapiens (Human), UniProt Q9BUB5)"
  RESULT: "< 5.00"
- COMPOUND: "NC1CC(Oc2nc(C3CC3)c(Cl)c(-n3cnc4ccccc43)n2)C1 (centres unmarked)"
  TARGET ENTITY: "Mnk1 (Homo sapiens (Human), UniProt Q9BUB5)"
  RESULT: "5.00 to 6.00"
- COMPOUND: "Fc1cc(CCOc2ncc(Cl)c(-n3cnc4ccccc43)n2)ccn1"
  TARGET ENTITY: "Mnk1 (Homo sapiens (Human), UniProt Q9BUB5)"
  RESULT: "> 6.00"
- COMPOUND: "N#Cc1cnc(OC2CCc3cccnc32)nc1-n1cnc2ccccc21 (centres unmarked)"
  TARGET ENTITY: "Mnk1 (Homo sapiens (Human), UniProt Q9BUB5)"
  RESULT: "< 5.00"
- COMPOUND: "N#Cc1cnc(OCc2cccnc2)nc1-n1cnc2ccccc21"
  TARGET ENTITY: "Mnk1 (Homo sapiens (Human), UniProt Q9BUB5)"
  RESULT: "> 6.00"
- COMPOUND: "FC(F)(F)c1cc(Cl)c2ncn(-c3nc(OCCc4ccccn4)ncc3Cl)c2c1"
  TARGET ENTITY: "Mnk1 (Homo sapiens (Human), UniProt Q9BUB5)"
  RESULT: "5.00 to 6.00"
- COMPOUND: "N#Cc1cnc(NCCCc2ccncc2)nc1-n1cnc2ccccc21"
  TARGET ENTITY: "Mnk1 (Homo sapiens (Human), UniProt Q9BUB5)"
  RESULT: "< 5.00"
- COMPOUND: "NC1CC(Oc2ncc(Cl)c(-n3cnc4ccccc43)n2)C1 (centres unmarked)"
  TARGET ENTITY: "Mnk1 (Homo sapiens (Human), UniProt Q9BUB5)"
  RESULT: "> 6.00"
- COMPOUND: "Clc1cnc(NCCCc2ccncc2)nc1-n1cnc2ccccc21"
  TARGET ENTITY: "Mnk1 (Homo sapiens (Human), UniProt Q9BUB5)"
  RESULT: "< 5.00"
- COMPOUND: "N#Cc1cnc(-n2cnc3ccccc32)nc1OC1CCc2cccnc21 (centres unmarked)"
  TARGET ENTITY: "Mnk1 (Homo sapiens (Human), UniProt Q9BUB5)"
  RESULT: "5.00 to 6.00"
- COMPOUND: "Clc1cnc(OCCc2ccccn2)nc1-n1cnc2ccccc21"
  TARGET ENTITY: "Mnk1 (Homo sapiens (Human), UniProt Q9BUB5)"
  RESULT: "> 6.00"
- COMPOUND: "O=C(O)C1CC(Oc2ncc(Cl)c(-n3cnc4ccccc43)n2)C1 (centres unmarked)"
  TARGET ENTITY: "Mnk1 (Homo sapiens (Human), UniProt Q9BUB5)"
  RESULT: "5.00 to 6.00"
- COMPOUND: "COC(=O)c1ccc2c(c1)ncn2-c1nc(NCCc2ccncc2)ncc1Cl"
  TARGET ENTITY: "Mnk1 (Homo sapiens (Human), UniProt Q9BUB5)"
  RESULT: "5.00 to 6.00"
- COMPOUND: "Clc1cnc(NCCc2ccncc2)nc1-n1nnc2ccccc21"
  TARGET ENTITY: "Mnk1 (Homo sapiens (Human), UniProt Q9BUB5)"
  RESULT: "< 5.00"
- COMPOUND: "N#Cc1cnc(-n2cnc3ccccc32)nc1OCCc1ccnc(F)c1"
  TARGET ENTITY: "Mnk1 (Homo sapiens (Human), UniProt Q9BUB5)"
  RESULT: "> 6.00"
- COMPOUND: "N#Cc1cnc(Oc2ccc(Cl)cc2)nc1-n1cnc2ccccc21"
  TARGET ENTITY: "Mnk1 (Homo sapiens (Human), UniProt Q9BUB5)"
  RESULT: "> 6.00"
- COMPOUND: "N#Cc1cnc(Oc2cccnc2)nc1-n1cnc2ccccc21"
  TARGET ENTITY: "Mnk1 (Homo sapiens (Human), UniProt Q9BUB5)"
  RESULT: "5.00 to 6.00"
